Each entry below carries its recorded % DAMGO (0.1 μM).
- system_under_test: mu opiate receptor (MOR) (Rattus norvegicus)
- Construct: from tissue; host or cells: striatum (membrane preparation)
- Sequence (P33535 whole entry): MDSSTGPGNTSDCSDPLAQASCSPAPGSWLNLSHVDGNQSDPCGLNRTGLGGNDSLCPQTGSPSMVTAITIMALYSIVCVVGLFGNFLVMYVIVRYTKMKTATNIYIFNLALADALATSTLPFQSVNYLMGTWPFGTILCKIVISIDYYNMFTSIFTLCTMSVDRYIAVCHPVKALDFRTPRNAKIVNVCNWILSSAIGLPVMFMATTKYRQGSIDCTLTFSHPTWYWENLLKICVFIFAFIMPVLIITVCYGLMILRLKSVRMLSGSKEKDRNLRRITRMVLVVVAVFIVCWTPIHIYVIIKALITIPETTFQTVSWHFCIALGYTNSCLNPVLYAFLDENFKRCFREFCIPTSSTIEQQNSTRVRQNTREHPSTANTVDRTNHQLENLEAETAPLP
- Format: biochemical
Number plus unit, in that order.

molecule "CC(=O)c1ccc(S(=O)(=O)N2CCC3(CC2)NCCS3)cc1" , % DAMGO (0.1 μM) observed: 114.8%

molecule CC(=O)c1ccc(S(=O)(=O)N2CCOC23CCN(CC2CC2)CC3)cc1 [Compound C0095M] , % DAMGO (0.1 μM) observed: 107.4%

molecule COc1cccc(OC)c1CC(=O)CC1c2c(cc3c(c2OC)OCO3)CC[N+]1(C)C (centres unmarked) , % DAMGO (0.1 μM) observed: 39.2%

molecule "CC(C)c1ccc(S(=O)(=O)N2CCC3(CC2)OCCN3S(=O)(=O)c2ccc(C(C)C)cc2)cc1" , % DAMGO (0.1 μM) observed: 46.0%

Further cases:
molecule C=CCN1CCC2(CC1)OCCN2S(=O)(=O)c1ccc(C(C)=O)cc1 [Compound C0096M] , % DAMGO (0.1 μM) observed: 105.9%

molecule "CC(=O)c1ccc(S(=O)(=O)N2CCC3(CC2)NC(=O)CN3S(=O)(=O)c2ccc(C(C)=O)cc2)cc1" , % DAMGO (0.1 μM) observed: 124.2%

molecule "O=S(=O)(c1ccc(OC(F)(F)F)cc1)N1CCC2(CC1)OCCN2S(=O)(=O)c1ccc(OC(F)(F)F)cc1" , % DAMGO (0.1 μM) observed: 70.6%

molecule CC1CCC(C(C)C)C(OCC(O)CN2CCCC2=O)C1 (centres unmarked) , % DAMGO (0.1 μM) observed: 61.5%

###

- system_under_test: mu opiate receptor (MOR) (Rattus norvegicus)
- Construct: from tissue; host or cells: striatum (membrane preparation)
- Type: biochemical
- condition: [35S]GTPγS binding to Gαo in striatal membranes; compound 0.1 μM
Each entry below carries its recorded Concentration of FLNA-Binding Compound as Agonist 0.1 μM.
Give your result in % as a bare value.

Completed entries (count: 4):
compound OC(COc1ccc(Br)c(F)c1)CN1CCc2ccccc2C1 (centres unmarked) [Compound A0057] , Concentration of FLNA-Binding Compound as Agonist 0.1 μM observed: 124.2

compound CCCCc1ccc(S(=O)(=O)N2CCC3(CC2)OCCN3S(=O)(=O)c2ccc(CCCC)cc2)cc1 [Compound C0030] , Concentration of FLNA-Binding Compound as Agonist 0.1 μM observed: 150.3

compound COc1ccc(OC)c(CCC(=O)CC2c3c(cc4c(c3OC)OCO4)CC[N+]2(C)C)c1 (centres unmarked) [Compound B0044] , Concentration of FLNA-Binding Compound as Agonist 0.1 μM observed: 87.3

compound CC1CCC(C(C)C)C(OCC(O)CN2CCN(C)CC2)C1 (centres unmarked) [Compound A0009] , Concentration of FLNA-Binding Compound as Agonist 0.1 μM observed: 70.2

Further cases:
compound COc1c2c(cc3c1C(CC(O)CCc1ccccc1)[N+](C)(C)CC3)OCO2 (centres unmarked) [Compound B0052] , Concentration of FLNA-Binding Compound as Agonist 0.1 μM observed: 98.2

compound O=S(=O)(c1cccs1)N1CCC2(CC1)OCCN2S(=O)(=O)c1cccs1 [Compound C0141M] , Concentration of FLNA-Binding Compound as Agonist 0.1 μM observed: 161.5

compound COc1c2c(cc3c1C(CC(=O)c1ccc(O)c(C)c1)[N+](C)(C)CC3)OCO2 (centres unmarked) [Compound B0002] , Concentration of FLNA-Binding Compound as Agonist 0.1 μM observed: 165.7

compound COc1ccc(CCC(O)CC2c3c(cc4c(c3OC)OCO4)CC[N+]2(C)C)cc1 (centres unmarked) [Compound B0049] , Concentration of FLNA-Binding Compound as Agonist 0.1 μM observed: 181.6

compound COc1ccc(S(=O)(=O)N2CCOC23CCN(S(=O)(=O)c2ccc(C(C)=O)cc2)CC3)cc1 [Compound C0047] , Concentration of FLNA-Binding Compound as Agonist 0.1 μM observed: 142.2

compound CC1CCC(C(C)C)C(OCC(O)CN2CC(C)OC(C)C2)C1 (centres unmarked) [Compound A0032-1] , Concentration of FLNA-Binding Compound as Agonist 0.1 μM observed: 187.4

compound CC1CCC(C(C)C)C(OCC(O)CN2CC(C)CC(C)C2)C1 (centres unmarked) [Compound A0008] , Concentration of FLNA-Binding Compound as Agonist 0.1 μM observed: 163.8

compound COc1cc(C(=O)CC2c3c(cc4c(c3OC)OCO4)CC[N+]2(C)C)cc(OC)c1OC (centres unmarked) [Compound B0037] , Concentration of FLNA-Binding Compound as Agonist 0.1 μM observed: 119.8
